target.desc: HLA A*3001 (Homo sapiens, UniProt P04439, D140H/D185E/E176W/F33S/G80R/H175R/K168Q/R138E/R41S)
protocol: biochemical
Type: binding
Normalized average relative binding affinity (ARB), HLA A*3001 below 0.08 gives FALSE; Normalized average relative binding affinity (ARB), HLA A*3001 at or above it gives TRUE.

Past entries and their recorded results:
[[record]]
input_sequence = "AXXXXXXXX [3064.0001]"
assigned_category = "TRUE"

[[record]]
input_sequence = "TXXXXXXXX [3064.0017]"
assigned_category = "FALSE"

[[record]]
input_sequence = "QXXXXXXXX [3064.0014]"
assigned_category = "FALSE"

[[record]]
input_sequence = "XXDXXXXXX [3064.0043]"
assigned_category = "FALSE"


We next turn to a different sequence, shown below.
Evaluate XXXDXXXXX [3064.0063] : Normalized average relative binding affinity (ARB), HLA A*3001 at minimum 0.08?
TRUE

----------
target.desc: HLA B*1503 (Homo sapiens, UniProt P01889, A329T/A93T/A95T/C349S/D201E/D98Y/E187L/E204Q/K202T/N87E/Q94N/R155S/R180L/S121R/S35A/V306I/V36M/Y140S/Y91S)
protocol: biochemical
Type: binding
observed.property: Normalized average relative binding affinity(ARB)
Format: numeric value only, no unit, no commentary.

Example results:
[[record]]
input_sequence = "XXXEXXXXX [3064.0064]"
number = 0.25

[[record]]
input_sequence = "XXXXHXXXX [3064.0087]"
number = 0.32

[[record]]
input_sequence = "XXXTXXXXX [3064.0077]"
number = 0.41

[[record]]
input_sequence = "XXXXXDXXX [3064.0103]"
number = 0.19


Entry XXXXXXVXX [3064.0138] : reported Normalized average relative binding affinity(ARB) = ?
0.19

Entry XXXXSXXXX [3064.0096] : reported Normalized average relative binding affinity(ARB) = ?
0.47

Entry XXXXXGXXX [3064.0106] : reported Normalized average relative binding affinity(ARB) = ?
0.68

Entry XXXXXXXNX [3064.0152] : reported Normalized average relative binding affinity(ARB) = ?
0.13

Entry XXXXXXXMX [3064.0151] : reported Normalized average relative binding affinity(ARB) = ?
0.14

Entry XXXXXIXXX [3064.0108] : reported Normalized average relative binding affinity(ARB) = ?
0.41

Entry XXXQXXXXX [3064.0074] : reported Normalized average relative binding affinity(ARB) = ?
0.83

Entry XXXXRXXXX [3064.0095] : reported Normalized average relative binding affinity(ARB) = ?
0.28

----------
target.desc: HLA B*0801 (Homo sapiens, UniProt P01889, A93T/A95T/D138N/E176V/E187T/K202T/Q94N/R180D/S35A/V36M/Y33D/Y91F)
protocol: biochemical
Format: binding
Normalized average relative binding affinity(ARB) below 0.1 gives N; Normalized average relative binding affinity(ARB) at or above it gives Y.

Past entries and their recorded results:
[[record]]
input_sequence = "XXXWXXXXX [3064.0079]"
assigned_category = "Y"

[[record]]
input_sequence = "XXXXQXXXX [3064.0094]"
assigned_category = "N"

[[record]]
input_sequence = "XXXXXXIXX [3064.0128]"
assigned_category = "N"

[[record]]
input_sequence = "XXXXXLXXX [3064.0110]"
assigned_category = "N"

[[record]]
input_sequence = "XXXXXFXXX [3064.0105]"
assigned_category = "Y"


Evaluate XXXXXMXXX [3064.0111] : Normalized average relative binding affinity(ARB) at minimum 0.1?
N

Evaluate XXXXXNXXX [3064.0112] : Normalized average relative binding affinity(ARB) at minimum 0.1?
N

Evaluate XXXXXXNXX [3064.0132] : Normalized average relative binding affinity(ARB) at minimum 0.1?
Y

Evaluate XXXXHXXXX [3064.0087] : Normalized average relative binding affinity(ARB) at minimum 0.1?
Y

----------
target.desc: H-2 K^d (Mus musculus)
Type: binding
Doc: threshold 0.3 (exclusive). Items with Normalized average relative binding affinity(ARB) beneath it return Y; others return N.

[[record]]
input_sequence = "XXXXRXXXX [3064.0095]"
assigned_category = "Y"

[[record]]
input_sequence = "XXXLXXXXX [3064.0070]"
assigned_category = "Y"

[[record]]
input_sequence = "XXXXXSXXX [3064.0116]"
assigned_category = "Y"

[[record]]
input_sequence = "XXXXIXXXX [3064.0088]"
assigned_category = "Y"

[[record]]
input_sequence = "XXXXXXPXX [3064.0133]"
assigned_category = "Y"


Lab note: confirm whether the reported Normalized average relative binding affinity(ARB) for this sequence is below 0.3, equality not counting. sequence: XXXXXXXNX [3064.0152]
N

Lab note: confirm whether the reported Normalized average relative binding affinity(ARB) for this sequence is below 0.3, equality not counting. sequence: XXXXXXXHX [3064.0147]
Y

Lab note: confirm whether the reported Normalized average relative binding affinity(ARB) for this sequence is below 0.3, equality not counting. sequence: XXXXXFXXX [3064.0105]
N

Lab note: confirm whether the reported Normalized average relative binding affinity(ARB) for this sequence is below 0.3, equality not counting. sequence: XXXXXXXVX [3064.0158]
N

Lab note: confirm whether the reported Normalized average relative binding affinity(ARB) for this sequence is below 0.3, equality not counting. sequence: XXXVXXXXX [3064.0078]
Y

Lab note: confirm whether the reported Normalized average relative binding affinity(ARB) for this sequence is below 0.3, equality not counting. sequence: XXXXXXXQX [3064.0154]
N

Lab note: confirm whether the reported Normalized average relative binding affinity(ARB) for this sequence is below 0.3, equality not counting. sequence: XXXXXYXXX [3064.0120]
Y

Lab note: confirm whether the reported Normalized average relative binding affinity(ARB) for this sequence is below 0.3, equality not counting. sequence: XXXEXXXXX [3064.0064]
Y

----------
target.desc: HLA B*1501 (Homo sapiens, UniProt P01889, A329T/A93T/A95T/C349S/D201E/D98Y/E187L/E204Q/E69M/E70A/K202T/N87E/Q94N/R155S/R180W/S121R/S35A/S48A/V306I/V36M/Y140S/Y91S)
protocol: biochemical
Format: binding
pIC50: −log10 of the molar value. Where a SMILES comes first, the peptide text is derived from it.
pIC50 below 8 gives 0.0; pIC50 at or above it gives 1.0.

Past entries and their recorded results:
[[record]]
compound = "CC[C@H](C)[C@H](NC(=O)[C@H](CCSC)NC(=O)[C@H](CC(C)C)NC(=O)[C@H](CCSC)NC(=O)[C@@H](N)CCSC)C(=O)NCC(=O)N[C@@H](CC(N)=O)C(=O)N[C@@H](Cc1ccc(O)cc1)C(=O)N[C@@H](Cc1ccccc1)C(=O)O [3102.1301] (H-MMLMIGNYF-OH)"
assigned_category = 0.0

[[record]]
compound = "CSCC[C@H](NC(=O)[C@H](CC(C)C)NC(=O)[C@H](Cc1ccc(O)cc1)NC(=O)[C@H](CCCCN)NC(=O)[C@H](CCSC)NC(=O)[C@@H](N)CO)C(=O)N[C@@H](CC(C)C)C(=O)N[C@@H](CC(C)C)C(=O)N[C@@H](Cc1ccccc1)C(=O)O [3102.0789] (H-SMKYLMLLF-OH)"
assigned_category = 1.0

[[record]]
compound = "CSCC[C@H](N)C(=O)N[C@@H](CCC(=O)O)C(=O)N[C@@H](CCCNC(=N)N)C(=O)N[C@@H](Cc1ccccc1)C(=O)N[C@@H](CC(N)=O)C(=O)N[C@@H](CS)C(=O)N[C@@H](CO)C(=O)N[C@@H](CO)C(=O)N[C@@H](Cc1ccccc1)C(=O)O [3102.0839] (H-MERFNCSSF-OH)"
assigned_category = 1.0

[[record]]
compound = "CC(C)C[C@H](N)C(=O)N[C@@H](C)C(=O)N[C@@H](CCCCN)C(=O)N[C@@H](CCCCN)C(=O)N[C@@H](CO)C(=O)N[C@@H](Cc1ccc(O)cc1)C(=O)N[C@H](C(=O)N[C@H](C(=O)N[C@@H](Cc1ccccc1)C(=O)O)C(C)C)C(C)C [3102.0811] (H-LAKKSYVVF-OH)"
assigned_category = 0.0


We next turn to a different compound, shown below.
Evaluate CC(C)C[C@H](NC(=O)[C@@H](NC(=O)[C@H](CO)NC(=O)[C@@H](NC(=O)[C@H](CC(N)=O)NC(=O)[C@H](CC(C)C)NC(=O)[C@@H](N)CO)[C@@H](C)O)[C@@H](C)O)C(=O)NCC(=O)N[C@@H](Cc1ccccc1)C(=O)O [3102.1051] (H-SLNTSTLGF-OH) : pIC50 at minimum 8?
1.0
